# experiment: Plasma and tissue concentration in high fat diet mice, day 36
# Format: in vivo, mice (Mus musculus—C57BL-6)
# condition-info: male, C57BL-6, mouse, jejunum, oral, 30 mg/kg, 1 hr, read-out: Jejunum
assay-metric: concentration at 1 h (µg/mL)

[
  {
    "cpd-smiles": "O=c1[nH]c(-c2c[nH]c3cc(F)c(-c4ccc(C5(O)CCC5)cc4)c(F)c23)no1",
    "assay-metric": "concentration at 1 h",
    "reading": 124
  }
]

----------
# experiment: Plasma and tissue concentration in high fat diet mice, day 36
# Format: in vivo, mice (Mus musculus—C57BL-6)
# condition-info: male, C57BL-6, mouse, brain, oral, 30 mg/kg, 4 hr, read-out: Brain
assay-metric: concentration at 4 h (ng/mL)

[
  {
    "cpd-smiles": "O=c1[nH]c(-c2c[nH]c3cc(F)c(-c4ccc(C5(O)CCC5)cc4)c(F)c23)no1",
    "reading": 6
  }
]

----------
# experiment: Plasma and tissue concentration in high fat diet mice, day 36
# Type: in vivo, mice (Mus musculus—C57BL-6)
# condition-info: male, C57BL-6, mouse, skeletal muscle, oral, 30 mg/kg, 1 hr, read-out: Skeletal muscle

[
  {
    "cpd-smiles": "O=c1[nH]c(-c2c[nH]c3cc(F)c(-c4ccc(C5(O)CCC5)cc4)c(F)c23)no1",
    "reading-unit": "ng/mL",
    "concentration at 1 h": 287
  }
]

----------
Listed molecules paired with reported AC50
# measurement-target: AMPK (A2/B1/G2) (Homo sapiens, UniProt P54646+Q9UGJ0+Q9Y478)
# Sequence (P54646 whole entry): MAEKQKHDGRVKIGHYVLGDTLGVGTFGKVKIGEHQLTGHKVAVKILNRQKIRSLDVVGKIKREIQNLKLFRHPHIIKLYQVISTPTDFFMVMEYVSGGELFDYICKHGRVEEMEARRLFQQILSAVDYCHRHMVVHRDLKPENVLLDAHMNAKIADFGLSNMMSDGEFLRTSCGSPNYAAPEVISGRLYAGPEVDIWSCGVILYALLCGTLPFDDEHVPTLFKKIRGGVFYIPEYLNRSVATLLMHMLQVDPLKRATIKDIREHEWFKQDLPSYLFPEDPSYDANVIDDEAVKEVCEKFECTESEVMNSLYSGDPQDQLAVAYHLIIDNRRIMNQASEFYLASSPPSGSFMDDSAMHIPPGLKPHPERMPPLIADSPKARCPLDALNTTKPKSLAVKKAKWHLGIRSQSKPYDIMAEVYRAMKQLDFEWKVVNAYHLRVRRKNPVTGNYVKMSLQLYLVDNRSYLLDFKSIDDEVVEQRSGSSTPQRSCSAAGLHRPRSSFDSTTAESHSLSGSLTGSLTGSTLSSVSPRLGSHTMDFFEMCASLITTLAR
# Sequence (Q9Y478 whole entry): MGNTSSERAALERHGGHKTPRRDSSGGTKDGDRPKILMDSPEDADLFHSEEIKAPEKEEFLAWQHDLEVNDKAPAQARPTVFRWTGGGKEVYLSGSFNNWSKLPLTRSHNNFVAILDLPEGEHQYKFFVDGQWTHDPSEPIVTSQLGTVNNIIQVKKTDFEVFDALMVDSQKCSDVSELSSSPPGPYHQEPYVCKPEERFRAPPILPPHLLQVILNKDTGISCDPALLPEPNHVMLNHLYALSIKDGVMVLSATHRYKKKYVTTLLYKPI
# Sequence (Q9UGJ0 whole entry): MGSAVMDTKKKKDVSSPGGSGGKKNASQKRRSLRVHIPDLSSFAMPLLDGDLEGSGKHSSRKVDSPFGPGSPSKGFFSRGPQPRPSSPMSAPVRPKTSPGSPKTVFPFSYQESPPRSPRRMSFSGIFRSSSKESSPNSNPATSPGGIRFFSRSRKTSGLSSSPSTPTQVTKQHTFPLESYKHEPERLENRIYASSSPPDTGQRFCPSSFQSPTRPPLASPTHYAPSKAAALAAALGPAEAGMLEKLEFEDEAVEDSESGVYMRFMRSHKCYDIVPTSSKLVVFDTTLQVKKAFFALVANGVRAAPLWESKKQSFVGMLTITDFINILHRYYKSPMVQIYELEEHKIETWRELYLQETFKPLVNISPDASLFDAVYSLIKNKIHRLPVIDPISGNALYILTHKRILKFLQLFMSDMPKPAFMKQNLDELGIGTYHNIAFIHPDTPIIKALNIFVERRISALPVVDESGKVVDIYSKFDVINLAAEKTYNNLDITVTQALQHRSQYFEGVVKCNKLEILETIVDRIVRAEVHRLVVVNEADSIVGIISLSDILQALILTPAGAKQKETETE
# experiment: AMPK kinase binding activity in activation mode (AC50)
# Type: biochemical

[
  {
    "cpd-smiles": "O=c1[nH]c(-c2c[nH]c3cc(F)c(-c4ccc(C5(O)COC5)cc4)c(F)c23)no1",
    "AC50": "≤ 10 nM"
  },
  {
    "cpd-smiles": "O=c1[nH]c(-c2c[nH]c3cc(Cl)c(-c4ccc(C5(O)CCC5)cc4)cc23)no1",
    "AC50": "≤ 10 nM"
  },
  {
    "cpd-smiles": "O=c1[nH]c(-c2c[nH]c3cc(F)c(-c4ccc(C5(O)COC5)cc4)cc23)no1",
    "AC50": "10 to 500 nM"
  },
  {
    "cpd-smiles": "O=c1[nH]c(-c2c[nH]c3ccc(-c4ccc(C5(O)CCC5)cc4)cc23)no1",
    "AC50": "10 to 500 nM"
  },
  {
    "cpd-smiles": "COc1ccc(-c2c(F)cc3[nH]cc(-c4noc(=O)[nH]4)c3c2F)c(OC)n1",
    "AC50": "500 to 5000 nM"
  },
  {
    "cpd-smiles": "COc1ccc(-c2cc3c(-c4noc(=O)[nH]4)c[nH]c3cc2F)cn1",
    "AC50": "500 to 5000 nM"
  },
  {
    "cpd-smiles": "COc1ncccc1-c1cc2c(-c3noc(=O)[nH]3)c[nH]c2cc1F",
    "AC50": "≤ 10 nM"
  }
]

----------
# experiment: Plasma and tissue concentration in high fat diet mice, day 36
# Format: in vivo, mice (Mus musculus—C57BL-6)
# condition-info: male, C57BL-6, mouse, jejunum, oral, 30 mg/kg, 4 hr, read-out: Jejunum

[
  {
    "cpd-smiles": "O=c1[nH]c(-c2c[nH]c3cc(F)c(-c4ccc(C5(O)CCC5)cc4)c(F)c23)no1",
    "concentration at 4 h": "27 ng/mL"
  }
]
